pKi: −log10 of the molar value.
Record set of pKi for target or system STAT5b (Homo sapiens, UniProt P51692).
quantity: pKi

[[record]]
molecule = "CC(=O)NCc1cc(OP(=O)(O)O)cc(OP(=O)(O)O)c1 [compound 3]"
numeric_result = 4.73

[[record]]
molecule = "O=C(CNc1ccc(C(=O)Nc2ccc(Oc3ccccc3)cc2)cc1)NCc1cc(OP(=O)(O)O)cc(OP(=O)(O)O)c1 [compound 5]"
numeric_result = 5.82

[[record]]
molecule = "CC(=O)NCc1ccc(OP(=O)(O)O)cc1OP(=O)(O)O [compound 2]"
numeric_result = 4.38

[[record]]
molecule = "O=C(COc1ccc(C(=O)Nc2ccc(Oc3ccccc3)cc2)cc1)NCc1cc(OP(=O)(O)O)cc(OP(=O)(O)O)c1 [compound 4]"
numeric_result = 6.05

[[record]]
molecule = "O=P(O)(O)Oc1cccc(OP(=O)(O)O)c1 [compound 1, 1,3-Phenylene bis(dihydrogen phosphate)]"
numeric_result = 4.69

[[record]]
molecule = "O=P(O)(O)Oc1ccc(F)c(OP(=O)(O)O)c1 [compound 6]"
numeric_result = 4.56

[[record]]
molecule = "O=P(O)(O)Oc1cccc(OP(=O)(O)O)c1F [compound 7]"
numeric_result = 5.12

